Consider the following binders and their measured Kd readings.
- assay system: T1, biotinylated ADDL (bADDL) (UniProt P05067 672-713, N-terminal biotin)
- T1 construct: domain: Aβ1-42; Panning and ELISA speak of 10% biotinylated ADDL; also called bADDLs; high molecular weight bADDL
- procedure details: BIACORE, bADDL as antigen; IgG1#1
measured attribute: Kd (nM)

binder	measured attribute	experimental value
20C2-12A IgG1 (antibody, V domains shown, also called 4P1-32) VH: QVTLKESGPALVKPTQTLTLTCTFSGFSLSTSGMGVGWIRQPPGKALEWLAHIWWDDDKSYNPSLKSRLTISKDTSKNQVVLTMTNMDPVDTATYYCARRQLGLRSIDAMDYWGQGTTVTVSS VL: DVVMTQSPLSLPVTPGEPASISCRSSQSILHSNGNTYLEWYLQKPGQSPQLLIYKVSNRFSGVPDRFSGSGSGTDFTLKISRVEAEDVGVYYCLQSSLVPLTFGQGTKLEIK	Kd	0.015
20C2-10A IgG1 (antibody, V domains shown, also called SJ-p3-33) VH: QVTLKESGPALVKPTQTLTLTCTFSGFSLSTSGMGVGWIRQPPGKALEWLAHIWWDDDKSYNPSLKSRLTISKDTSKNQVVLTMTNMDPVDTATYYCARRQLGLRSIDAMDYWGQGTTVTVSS VL: DVVMTQSPLSLPVTPGEPASISCRSSQSILHSNGNTYLEWYLQKPGQSPQLLIYKVSNRFSGVPDRFSGSGSGTDFTLKISRVEAEDVGVYYCFQGSRLPVSFGQGTKLEIK	Kd	7.7
20C2-13A IgG1 (antibody, V domains shown, also called 4p1-20; 4P1-20) VH: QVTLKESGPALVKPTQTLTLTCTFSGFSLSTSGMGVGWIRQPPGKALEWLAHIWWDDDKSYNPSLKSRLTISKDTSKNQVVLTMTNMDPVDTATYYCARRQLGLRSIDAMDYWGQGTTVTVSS VL: DVVMTQSPLSLPVTPGEPASISCRSSQSILHSNGNTYLEWYLQKPGQSPQLLIYKVSNRFSGVPDRFSGSGSGTDFTLKISRVEAEDVGVYYCLQTSNVPLTFGQGTKLEIK	Kd	0.764
20C2-23A IgG1 (antibody, V domains shown, also called 4P1-40) VH: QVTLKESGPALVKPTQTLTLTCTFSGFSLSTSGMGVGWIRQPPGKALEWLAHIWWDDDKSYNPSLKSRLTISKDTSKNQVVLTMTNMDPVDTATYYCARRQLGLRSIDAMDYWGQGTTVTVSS VL: DVVMTQSPLSLPVTPGEPASISCRSSQSILHSNGNTYLEWYLQKPGQSPQLLIYKVSNRFSGVPDRFSGSGSGTDFTLKISRVEAEDVGVYYCHQSSKVPLTFGQGTKLEIK	Kd	0.085
20C2-18A IgG1 (antibody, V domains shown, also called SJ-p1-9M) VH: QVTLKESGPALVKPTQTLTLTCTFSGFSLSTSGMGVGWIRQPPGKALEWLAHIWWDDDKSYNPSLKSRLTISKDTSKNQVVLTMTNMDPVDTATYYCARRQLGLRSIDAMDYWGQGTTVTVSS VL: DVVMTQSPLSLPVTPGEPASISCRSSQSILHSNGNTYLEWYLQKPGQSPQLLIYKVSNRFSGVPDRFSGSGSGTDFTLKISRVEAEDVGVYYCMQSSFVPLTFGQGTKLEIK	Kd	0.149
20C2-20A IgG1 (antibody, V domains shown, also called SJ-p3-15) VH: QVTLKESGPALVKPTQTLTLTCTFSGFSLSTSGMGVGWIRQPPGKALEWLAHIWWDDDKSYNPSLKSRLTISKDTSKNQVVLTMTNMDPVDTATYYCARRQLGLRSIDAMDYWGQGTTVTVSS VL: DVVMTQSPLSLPVTPGEPASISCRSSQSILHSNGNTYLEWYLQKPGQSPQLLIYKVSNRFSGVPDRFSGSGSGTDFTLKISRVEAEDVGVYYCFQGSLFPPVFGQGTKLEIK	Kd	6.9
